Reference for the values: the RNAGym collection of RNA variant scans (doi:10.1101/gr.219683.116)

Measured exon inclusion enrichment index, listed per entry for reference.
B1: mRNA-splicing (parent)
chain: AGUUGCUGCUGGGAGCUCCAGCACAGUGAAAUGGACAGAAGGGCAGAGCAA

variants of: B1; assay: exon inclusion enrichment index; higher = more inclusion; WT1 exon 5 minigene, HEK293

var	exon inclusion enrichment index
G5C C6U G8C C9U U10C C44A	3.29
G5C C6A U7C G8A U10A C36G A37C	0.0273
G42A G43A	1.43
G5A U7C G8A U10C G42C	3.71
G5U G8U C9U G41A G42U	0.115
G5A U7C G8A U10C G15A C16U	1.55
G5A C6U U7A G8U C9A G13U	0.00122
G5A C6U U7A G8U C9A G46A	0.0879
G5A C6U U7A G8U C9A G21C C22A	0.109
A20C G21A	1.19
C6A U7A C9A U10A A45U G46A	0.485
G5A C6G U7A C9A U10A	0.0116
U3A U4A C6A U7A C9A U10A	0.441
G5A U7C G8A U10C A25C	4.03
G5A U7C G8A U10C U32C	3.88
G5U G8U C9U G15C C16U	0.0902
G5U G8U C9U C18G C19A	0.159
G5C C6A U7C G8A U10A G41C G42U	0.481
G5A U7C G8A U10C A40U G41A	0.108
G5A U7C G8A U10C U32G G33A	0.707
G5C U10C	1.29
G5A U7C G8A U10C A40G	1.93
